- measured_target: 5-hydroxytryptamine receptor 1D (Homo sapiens)
- Sequence (P28221 whole entry): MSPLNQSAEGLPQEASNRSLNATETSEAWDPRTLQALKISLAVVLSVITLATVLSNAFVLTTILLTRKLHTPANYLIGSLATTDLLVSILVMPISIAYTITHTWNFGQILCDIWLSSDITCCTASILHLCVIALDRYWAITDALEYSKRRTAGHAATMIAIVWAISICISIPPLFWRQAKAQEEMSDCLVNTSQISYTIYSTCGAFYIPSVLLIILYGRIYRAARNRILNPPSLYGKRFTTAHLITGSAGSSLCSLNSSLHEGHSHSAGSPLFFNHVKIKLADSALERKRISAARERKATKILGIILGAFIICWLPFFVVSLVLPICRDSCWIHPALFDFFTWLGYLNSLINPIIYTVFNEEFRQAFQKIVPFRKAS
- procedure_details: Displacement of [3H]5-CT from human recombinant 5HT1D receptor expressed in HEKT cells
measured_endpoint: Ki

Solved cases below.
>>> result("C/N=C1/N/C(=C/c2c[nH]c3cccc(Br)c23)C(=O)N1C")
"> 10 µM"
>>> result("C/N=C1\\NC(=O)/C(=C\\c2c[nH]c3cccc(Br)c23)N1C")
"> 10 µM"

Exercise: Query: Ki; subject: `CN1C(=N)N(C)/C(=C/c2c[nH]c3c(Br)cccc23)C1=O`
Key: > 10 µM
